# System: SNB-19 CNS
# test: NCI-60 one-dose screen, 48 h (100 = growth as untreated, 0 = no growth, -100 = all killed)
# condition_description: 10 µM unless noted
Compounds without any hit were thinned out: in the full panel of roughly 83,000, 20% have a hit.
measurement_kind: growth (%)
Numbers only, in %.

Below are worked cases with known answers.
COc1cc(-c2nn(-c3cccc(NC(=O)Nc4ccc(Cl)c(Cl)c4)c3)cc2-c2ccncc2)ccc1Cl ... 27.2
COc1ccc(-c2nc3sccn3c2/C=C/C(=O)c2cc(F)cc(F)c2)cc1 ... 67.8
COc1ccncc1S(=O)(=O)NC(=O)Nc1ccc(Cl)c(Cl)c1 ... 96.8
N/C(=N\S(=O)(=O)c1ccccc1)Nc1nc2ccccc2s1 ... 99

Please look at the items below and tell me growth for each one, in order.
1. CC(=O)Oc1cccc(S(=O)(=O)n2cc(C(=O)C(=O)Nc3ccncc3)c3ccccc32)c1
2. COc1ccc(N2CCN(Cc3cc(C(=O)/C=C/c4c[nH]c5ccccc45)ccc3O)CC2)cc1
3. COc1cc(C(=O)/C=C/c2ccc3nc(-c4cc(F)cc(F)c4)sc3c2)cc(OC)c1OC
4. C/C=C(\C)C(C(=O)NC1CCCCC1)N(C(=O)C1CCc2cc(F)ccc2O1)c1ccc(Cl)cc1 (stereo not given)

Reply:
1. 92.9
2. 100
3. 98.3
4. 97.8

Need growth for each of these compounds.
1. CCOC(=O)CC(=O)OC
2. CCCCOc1ccc(/C=C2/SC(N3CCCC3)=NC2=O)cc1

Reply:
[96.3, 92.8]
